Ref: patent US4026888A

Parameter: concentration at 1 h. Scope: all listed entries.
Assay: Mouse blood levels after intramuscular administration
Assay type: in vivo
Conditions: mouse, blood, im, 10 mg/kg, Example 2; IM 10 mg./kg.; 1 hr; 0.01% phosphate buffer; 16 or 32 mice; read-out: Blood Levels
Numeric answer only, unit ng/mL assumed.

| compound | parameter-measured | quantitative-readout |
| --- | --- | --- |
| O=C(O)C1=C(CSc2cnn[nH]2)CS[C@@H]2[C@H](N3C(=O)[C@@H](c4ccc(O)cc4)NC3c3ccc(S(=O)(=O)O)o3)C(=O)N12 (some centres unmarked) | concentration at 1 h | 11800 |

### Prompt Please give the measured concentration at 1 h for this compound: O=C(O)COc1ccccc1C1N[C@H](c2ccc(O)cc2)C(=O)N1[C@@H]1C(=O)N2C(C(=O)O)=C(CSc3cnn[nH]3)CS[C@H]12 (some centres unmarked)
### Response 10300

----------
Test: Mouse blood levels after oral administration
Assay type: in vivo
Settings: mouse, blood, po, 100 mg/kg, Table II; oral 100 mg./kg.; 1 hr; Tween-carboxymethylcellulose; 8 mice; read-out: Blood Level
parameter-measured: concentration at 1 h (ng/mL)
Numeric answer only, unit ng/mL assumed.

| molecule | concentration at 1 h / ng/mL |
| --- | --- |
| N[C@@H](C(=O)N[C@@H]1C(=O)N2C(C(=O)O)=C(CSc3cnn[nH]3)CS[C@H]12)c1ccc(O)cc1 [BL-S640, reference compound] | 39000 |

Note: attention shifts to another entry.
### Prompt Please give the measured concentration at 1 h for this molecule: O=C(O)C1=C(CSc2cnn[nH]2)CS[C@@H]2[C@H](N3C(=O)[C@@H](c4ccc(O)cc4)NC3c3ccc(S(=O)(=O)O)o3)C(=O)N12 (some centres unmarked)
### Response 36600

----------
Parameter: MIC. Scope: all listed entries.
Test system: Sal. enteritidis A9531
Assay: Antibiotic activity in nutrient broth (MIC)
Format: cell-based
Details: Salmonella enterica, ENTERITIDIS, inoculum 10^-4; derivatives adjusted for BL-S640 content; read-out: MIC
Numeric answer only, unit µg/mL assumed.

### Prompt Please give the measured MIC for this compound: N[C@@H](C(=O)N[C@@H]1C(=O)N2C(C(=O)O)=C(CSc3cnn[nH]3)CS[C@H]12)c1ccc(O)cc1 [BL-S640, reference compound]
### Response 0.25

### Prompt Please give the measured MIC for this compound: CC(=O)OCC1=C(C(=O)O)N2C(=O)[C@@H](NC(=O)Cc3cccs3)[C@H]2SC1 [Cephalothin, reference compound]
### Response 0.25

### Prompt Please give the measured MIC for this compound: O=C(O)C1=C(CSc2cnn[nH]2)CS[C@@H]2[C@H](N3C(=O)[C@@H](c4ccc(O)cc4)NC3c3ccccc3S(=O)(=O)O)C(=O)N12 (some centres unmarked)
### Response 0.35

### Prompt Please give the measured MIC for this compound: O=C(O)C1=C(CSc2cnn[nH]2)CS[C@@H]2[C@H](N3C(=O)[C@@H](c4ccc(O)cc4)NC3c3ccc(S(=O)(=O)O)o3)C(=O)N12 (some centres unmarked)
### Response 0.25

### Prompt Please give the measured MIC for this compound: O=C(O)COc1ccccc1C1N[C@H](c2ccc(O)cc2)C(=O)N1[C@@H]1C(=O)N2C(C(=O)O)=C(CSc3cnn[nH]3)CS[C@H]12 (some centres unmarked)
### Response 0.13

----------
Assay: Mouse blood levels after intramuscular administration
Type: in vivo
Details: mouse, blood, im, 10 mg/kg, Example 3; IM 10 mg./kg.; 0.5 hr; average of 3 experiments; read-out: Blood Levels
parameter-measured: concentration at 0.5 h (ng/mL)
Numeric answer only, unit ng/mL assumed.

| compound | concentration at 0.5 h / ng/mL |
| --- | --- |
| O=C(O)C1=C(CSc2cnn[nH]2)CS[C@@H]2[C@H](N3C(=O)[C@@H](c4ccc(O)cc4)NC3c3ccccc3S(=O)(=O)O)C(=O)N12 (some centres unmarked) [BL-S1055] | 9900 |

### Prompt Please give the measured concentration at 0.5 h for this compound: N[C@@H](C(=O)N[C@@H]1C(=O)N2C(C(=O)O)=C(CSc3cnn[nH]3)CS[C@H]12)c1ccc(O)cc1 [BL-S640, reference compound]
### Response 11500

----------
Assay: Urinary recovery after IM administration to rats
Assay type: in vivo
Conditions: rat, urine, 10 mg/kg, IM 10 mg./kg., 0-24 hr, read-out: Urinary Recovery, Percentage of Administered Dose Recovered
parameter-measured: dose excreted at 24 h (%)
Numeric answer only, unit % assumed.

| compound | dose excreted at 24 h / % |
| --- | --- |
| O=C(O)C1=C(CSc2cnn[nH]2)CS[C@@H]2[C@H](N3C(=O)[C@@H](c4ccc(O)cc4)NC3c3ccc(S(=O)(=O)O)o3)C(=O)N12 (some centres unmarked) | 31.8 |

### Prompt Please give the measured dose excreted at 24 h for this compound: O=C(O)COc1ccccc1C1N[C@H](c2ccc(O)cc2)C(=O)N1[C@@H]1C(=O)N2C(C(=O)O)=C(CSc3cnn[nH]3)CS[C@H]12 (some centres unmarked)
### Response 23.7

----------
Experiment: Mouse blood levels after intramuscular administration
Assay type: in vivo
Conditions: mouse, blood, im, 10 mg/kg, Table III; IM 10 mg./kg.; 1.5 hr; 0.01% phosphate buffer; read-out: Mouse Blood Levels
Method: Mouse Blood Levels After Intramuscular Administration of 10 mg./kg. Body Weight The compounds were dissolved in 0.01% phosphate buffer. Mouse Blood Levels After IM Administration of 10 mg./kg. Body Weight The compounds were prepared in 0.01% phosphate The compounds were prepared in 0.01% phosphate buffer.
parameter-measured: concentration at 1.5 h (ng/mL)
Numeric answer only, unit ng/mL assumed.

| molecule | quantitative-readout |
| --- | --- |
| O=C(O)C1=C(CSc2cnn[nH]2)CS[C@@H]2[C@H](N3C(=O)[C@@H](c4ccc(O)cc4)NC3c3ccc(S(=O)(=O)O)o3)C(=O)N12 (some centres unmarked) [BL-S1027] | 8000 |

### Prompt Please give the measured concentration at 1.5 h for this molecule: N[C@@H](C(=O)N[C@@H]1C(=O)N2C(C(=O)O)=C(CSc3cnn[nH]3)CS[C@H]12)c1ccc(O)cc1 [BL-S640, reference compound]
### Response 6300

----------
Test: Stability of aqueous solutions
Assay type: physicochemical
Details: water; 250, 25 and 10 mg./ml. of BL-S640 activity; at least 24 hours at room temperature; read-out: Stability of solutions (loss)
parameter-measured: degraded at 24 h

### Prompt Please give the measured degraded at 24 h for this compound: O=C(O)C1=C(CSc2cnn[nH]2)CS[C@@H]2[C@H](N3C(=O)[C@@H](c4ccc(O)cc4)NC3c3ccc(S(=O)(=O)O)o3)C(=O)N12 (stereo partly shown)
### Response < 10%

----------
Assay: Water solubility
Format: physicochemical
Conditions: read-out: Solubility in water
parameter-measured: solubility

| compound | solubility |
| --- | --- |
| O=C(O)C1=C(CSc2cnn[nH]2)CS[C@@H]2[C@H](N3C(=O)[C@@H](c4ccc(O)cc4)NC3c3ccccc3S(=O)(=O)O)C(=O)N12 (some centres unmarked) | > 400 mg/mL |

Note: attention shifts to another entry.
### Prompt Please give the measured solubility for this compound: O=C(O)C1=C(CSc2cnn[nH]2)CS[C@@H]2[C@H](N3C(=O)[C@@H](c4ccc(O)cc4)NC3c3ccc(S(=O)(=O)O)o3)C(=O)N12 (some centres unmarked)
### Response > 500 mg/mL

----------
Parameter: MIC. Scope: all listed entries.
System: S. aureus Smith A9537
Experiment: Antibiotic activity in nutrient broth (MIC)
Format: cell-based
Conditions: Staphylococcus aureus, SMITHA9537, inoculum 10^-4; + 50% serum; derivatives adjusted for BL-S640 content; read-out: MIC
Numeric answer only, unit µg/mL assumed.

| compound | parameter-measured | quantitative-readout |
| --- | --- | --- |
| N[C@@H](C(=O)N[C@@H]1C(=O)N2C(C(=O)O)=C(CSc3cnn[nH]3)CS[C@H]12)c1ccc(O)cc1 [BL-S640, reference compound] | MIC | 4 |
| O=C(O)C1=C(CSc2cnn[nH]2)CS[C@@H]2[C@H](N3C(=O)[C@@H](c4ccc(O)cc4)NC3c3ccc(S(=O)(=O)O)o3)C(=O)N12 (stereo partly shown) | MIC | 2 |
| O=C(O)C1=C(CSc2cnn[nH]2)CS[C@@H]2[C@H](N3C(=O)[C@@H](c4ccc(O)cc4)NC3c3ccccc3S(=O)(=O)O)C(=O)N12 (stereo partly shown) | MIC | 2 |

Note: attention shifts to another entry.
### Prompt What reported MIC corresponds to O=C(O)COc1ccccc1C1N[C@H](c2ccc(O)cc2)C(=O)N1[C@@H]1C(=O)N2C(C(=O)O)=C(CSc3cnn[nH]3)CS[C@H]12 (stereo partly shown) on S. aureus Smith A9537?
### Response 2
